# ASSAY TEXT: Hemolysis assay
# Type: cell-based
# CONDITION LABEL: rabbit, rabbit red blood cell suspension
READOUT LABEL: hemolysis at 1 h, 64 μg/mL (%)
Quick reminder: number only, in %, skip the unit.

Problem: Determine its reported hemolysis at 1 h, 64 μg/mL: `C[C@@H]1[C@H](O)[C@@H](C)/C=C/C=C/C=C/C=C/C=C/C=C/C=C/[C@H](O[C@@H]2O[C@H](C)[C@@H](O)[C@H](N)[C@@H]2O)C[C@@H]2O[C@](O)(C[C@@H](O)C[C@@H](O)[C@H](O)CC[C@@H](O)C[C@@H](O)CC(=O)O[C@H]1C)C[C@H](O)[C@H]2C(=O)O`
Solution: 100

----------
# ASSAY TEXT: Hemolysis assay
# Type: cell-based
# CONDITION LABEL: rabbit, rabbit red blood cell suspension
READOUT LABEL: hemolysis at 1 h, 32 μg/mL (%)
# unit: % | format: bare number

Problem: Report hemolysis at 1 h, 32 μg/mL for `C[C@@H]1[C@H](O)[C@@H](C)/C=C/C=C/C=C/C=C/C=C/C=C/C=C/[C@H](O[C@@H]2O[C@H](C)[C@@H](O)[C@H](N)[C@@H]2O)C[C@@H]2O[C@](O)(C[C@@H](O)C[C@@H](O)[C@H](O)CC[C@@H](O)C[C@@H](O)CC(=O)O[C@H]1C)C[C@H](O)[C@H]2C(=O)O`
Solution: 26.8
